Target: T1, SUDV GP on pseudotyped lentiviral vector (Sudan virus (SUDV), UniProt Q7T9D9 33-676)
T1 sequence: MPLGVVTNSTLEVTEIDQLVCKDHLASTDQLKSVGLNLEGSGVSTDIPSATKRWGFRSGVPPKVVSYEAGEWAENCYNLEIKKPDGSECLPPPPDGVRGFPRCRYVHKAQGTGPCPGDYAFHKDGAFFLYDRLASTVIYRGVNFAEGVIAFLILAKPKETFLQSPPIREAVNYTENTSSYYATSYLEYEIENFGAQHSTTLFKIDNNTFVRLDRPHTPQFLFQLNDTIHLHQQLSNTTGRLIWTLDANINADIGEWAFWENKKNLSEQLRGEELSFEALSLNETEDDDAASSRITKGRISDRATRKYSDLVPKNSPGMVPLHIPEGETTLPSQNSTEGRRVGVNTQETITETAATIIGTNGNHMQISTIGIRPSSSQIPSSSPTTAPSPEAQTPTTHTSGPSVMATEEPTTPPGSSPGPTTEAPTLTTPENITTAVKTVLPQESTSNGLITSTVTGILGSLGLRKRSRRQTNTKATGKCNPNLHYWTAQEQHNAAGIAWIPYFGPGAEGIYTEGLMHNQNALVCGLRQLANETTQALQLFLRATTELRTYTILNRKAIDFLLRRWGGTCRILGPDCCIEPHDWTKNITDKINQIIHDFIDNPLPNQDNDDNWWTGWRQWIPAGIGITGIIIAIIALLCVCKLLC
Test: cell-based or functional assay
Returns: string. Value is t if measured IC50, microneutralization of GP-pseudotyped lentiviral vector on HEK293 cells is below 0.1 µg/mL, and f if it is greater than or equal to it.

Decide: IC50, microneutralization of GP-pseudotyped lentiviral vector on HEK293 cells of antibody 294S (antibody, V domains shown) VH: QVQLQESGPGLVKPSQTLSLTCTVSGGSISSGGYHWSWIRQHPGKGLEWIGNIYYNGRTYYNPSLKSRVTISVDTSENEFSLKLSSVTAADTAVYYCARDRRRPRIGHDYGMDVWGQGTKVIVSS VL: DIQMTQSPSSLSASVGDRVTISCRASQSISNFLNWYQQKPGQAPKLLIYTASNLQSGVPSRFSGSGSGTDFTLTISSLQPEDFATYYCQQIYNTGMYSFGQGTKLEIKR strictly below 0.1 µg/mL? t

Decide: IC50, microneutralization of GP-pseudotyped lentiviral vector on HEK293 cells of antibody 573S (antibody, V domains shown) VH: EVQLVESGGGLVKPGGSLRLSCAASGFTFSSYTMNWVRQAPGKGLEWVSCIRSSSSDKYYADSVKGRFTISRDNTKNSLYLQMNSLRADDTAVYYCARDLGGANNRYYFDYGMDVWGQGTTVTVSS VL: EIVMTQSPATLSVSPGGRATLSCRASQSVYTNLAWYQQKPGQAPRLLIYDASTRATGIPARFSGSGSGTEFTLTISSLQCEDFAVYYCQHYNNWPLYTFGQGTKLEIK strictly below 0.1 µg/mL? f

Decide: IC50, microneutralization of GP-pseudotyped lentiviral vector on HEK293 cells of antibody 241S (antibody, V domains shown) VH: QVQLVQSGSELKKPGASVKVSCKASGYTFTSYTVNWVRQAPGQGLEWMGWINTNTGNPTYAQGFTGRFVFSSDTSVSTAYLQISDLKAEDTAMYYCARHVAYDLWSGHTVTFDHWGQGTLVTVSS VL: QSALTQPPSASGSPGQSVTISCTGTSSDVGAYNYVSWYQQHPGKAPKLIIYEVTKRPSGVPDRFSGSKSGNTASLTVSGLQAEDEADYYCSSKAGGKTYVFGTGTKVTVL strictly below 0.1 µg/mL? t

Decide: IC50, microneutralization of GP-pseudotyped lentiviral vector on HEK293 cells of antibody 523S (antibody, V domains shown) VH: QVQLVQSGAELKKPGASVKVSCKASGYTFSDHYVHWVRQAPGQGLEWMGRINPNSGGTNYAQRFLGRVTMTRDASISTAYLDLSSLRSDDTAVYYCARSSSSWSGHYYYYMDVWGKGTTVTVSS VL: QSVLTQPPSVSAAPGQRVTISCSGSTSNIASNFVSWYQQLPGTAPKLLIYDNHKRPSGIPDRFSGSKSGTSATLGITGLQTGDEADYYCGTWDSSLSAGVFGGGTKVTVLG strictly below 0.1 µg/mL? f
